# protocol: survival rescue of mitochondrial mutant cells in low glucose, primary screen, MELAS cybrids, Rieske KO mouse fibroblasts, CellTiter-Glo (AID 1508586); note: test concentration not given here
# conditionSet: Rieske KO mouse fibroblast survival, CellTiter-Glo 72 h
Where z-score equals or exceeds -0.4, the correct label is yes; where it does not, the label is no.

{"compound": "COc1c(C)c2c(c(O)c1C/C=C(\\C)CCC(=O)OCCN1CCOCC1)C(=O)OC2", "qualitativeLabel": "yes"}
{"compound": "CCOC(=O)[C@@](C)(N)Cc1ccc(O)c(O)c1", "qualitativeLabel": "no"}
{"compound": "Cc1cccc(Nc2cc(Cl)nc(SCC(=O)O)n2)c1C", "qualitativeLabel": "yes"}
{"compound": "C[N+]1(C)[C@@H]2CC[C@H]1CC(OC(=O)C(O)c1ccccc1)C2 (stereo partly drawn)", "qualitativeLabel": "yes"}
{"compound": "COCC(=O)Nc1c(I)c(C(=O)NCC(O)CO)c(I)c(C(=O)N(C)CC(O)CO)c1I (stereo not drawn)", "qualitativeLabel": "no"}
{"compound": "CN(C)CCn1nnnc1SCC1=C(C(=O)O)N2C(=O)[C@@H](NC(=O)Cc3csc(N)n3)[C@H]2SC1", "qualitativeLabel": "yes"}
{"compound": "CC(=O)Oc1ccccc1C(=O)Oc1ccccc1C(=O)O", "qualitativeLabel": "yes"}
